assayed target: Acetylcholinesterase (Homo sapiens, UniProt P22303)
Sequence (P22303 whole entry): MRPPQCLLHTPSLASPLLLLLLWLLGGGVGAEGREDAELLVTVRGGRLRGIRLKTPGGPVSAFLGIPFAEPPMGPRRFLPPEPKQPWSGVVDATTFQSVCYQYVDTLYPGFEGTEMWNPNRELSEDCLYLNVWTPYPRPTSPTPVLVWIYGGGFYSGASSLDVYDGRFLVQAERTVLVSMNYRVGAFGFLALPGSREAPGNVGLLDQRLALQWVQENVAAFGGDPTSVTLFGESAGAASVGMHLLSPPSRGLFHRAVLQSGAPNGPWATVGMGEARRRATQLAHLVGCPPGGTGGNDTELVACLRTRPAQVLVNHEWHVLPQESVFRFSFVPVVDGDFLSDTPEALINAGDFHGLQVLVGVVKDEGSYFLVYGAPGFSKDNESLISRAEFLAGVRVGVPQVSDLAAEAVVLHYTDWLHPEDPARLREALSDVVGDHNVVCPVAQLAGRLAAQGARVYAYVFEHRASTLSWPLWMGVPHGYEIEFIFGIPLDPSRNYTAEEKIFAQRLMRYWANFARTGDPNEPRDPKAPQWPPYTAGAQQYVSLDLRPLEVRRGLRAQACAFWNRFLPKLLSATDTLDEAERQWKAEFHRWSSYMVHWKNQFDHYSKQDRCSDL
pIC50: −log10 of the molar value.
The following ranges of pIC50 define the classes used here: bucket 1 = under 6, bucket 2 = from 6 up to 7, bucket 3 = 7 and over

{"columns": ["compound", "category"],
 "data": [
  ["CN1CCCc2cc(C(=O)CCC3CCN(Cc4ccccc4)CC3)ccc21", "bucket 3"],
  ["O=C(CCOCCc1c[nH]c2ccccc12)NCCCCCCCNc1c2c(nc3cc(Cl)ccc13)CCCC2", "bucket 3"],
  ["O=[N+]([O-])c1ccc2c(Nc3ccccc3)c3c(nc2c1)CCCC3", "bucket 1"],
  ["CCN1CCC2c3cc(OC(=O)NC)ccc3CC21 (stereo not given)", "bucket 2"],
  ["c1ccc(-c2cc(-c3ccccc3)c(NCCN3CCOCC3)nn2)cc1", "bucket 1"],
  ["Cc1c(/N=C/c2ccccc2O)cc2c(c1N)C(C)(C)CC2(C)C", "bucket 1"],
  ["O=C(c1ccccc1)c1ccc2c(c1)C(=O)N(CCC1CCN(Cc3ccccc3)CC1)C2=O", "bucket 3"],
  ["CN(C)C(=O)Oc1ccc(-c2cn3c(NC(=O)c4ccccc4)cccc3[n+]2C)cc1", "bucket 2"]
]}

====

Hi! I'm sharing some IC50 results obtained with Acetylcholinesterase (Homo sapiens, UniProt P22303).

{"columns": ["smiles record", "IC50 / nM"],
 "data": [
  ["CC(=O)Nc1cccc2n1cc(-c1ccc(OC(=O)N(C)C)cc1)[n+]2C", 700],
  ["O=C1c2ccccc2NCN1CCC1CCN(Cc2ccccc2)CC1", 800],
  ["COc1ccccc1CN(C)CCCN(C)CCCNCCC[n+]1c(-c2ccccc2)c2cc(N)ccc2c2ccc(N)cc21", 894],
  ["Cc1cc(-c2ccc(Cl)cc2)nnc1NCCN1CCCCC1", 1300]
]}

====

This section presents compounds with their documented IC50 values.
assayed target: Acetylcholinesterase (Homo sapiens)
measured quantity: IC50

{"columns": ["smiles record", "measured quantity", "value measured"],
 "data": [
  ["c1ccc(CN2CCC(CCNc3ccc(-c4ccccc4)nn3)CC2)cc1", "IC50", "120 nM"],
  ["c1ccc(C2=NNC(NCN3CCCCC3)=NC2)cc1", "IC50", "47000 nM"],
  ["c1ccc2c(NCCCCCCCCCCNc3ccncc3)c3c(nc2c1)CCCC3", "IC50", "176 nM"],
  ["Nc1c2c(nc3ccccc13)CCCCC2", "IC50", "39 nM"],
  ["CCc1cc(=NCCC2CCN(Cc3ccccc3)CC2)[nH]nc1-c1ccccc1", "IC50", "27 nM"],
  ["Fc1ccc2c(NCCCCCCCCNc3c4c(nc5cc(F)ccc35)CCCC4)c3c(nc2c1)CCCC3", "IC50", "0.7 nM"],
  ["CCCN1CCc2cc(C(=O)CCC3CCN(Cc4ccccc4)CC3)ccc21", "IC50", "22 nM"],
  ["COc1ccc(C(=O)N(CCC2CCN(Cc3ccccc3)CC2)c2ccccc2)cc1", "IC50", "590 nM"]
]}

====

pIC50: −log10 of the molar value.
Heads up, these molecules all have pIC50 values measured for Acetylcholinesterase (Homo sapiens).

{"columns": ["smiles record", "assayed target", "pIC50"],
 "data": [
  ["COc1ccc(NC(=S)NCCOCCN(C)Cc2cccc([N+](=O)[O-])c2)cc1OC", "Acetylcholinesterase (Homo sapiens)", 5.82],
  ["CCCCCCNC(=O)Oc1ccc2c(c1)[C@]1(C)CCN(C)[C@@H]1C2", "Acetylcholinesterase (Homo sapiens)", 8.00],
  ["O=C1Cc2ccccc2CN1CCC1CCN(Cc2ccccc2)CC1", "Acetylcholinesterase (Homo sapiens)", 7.77],
  ["CN(CCCNC(=O)CCc1c[nH]c2ccccc12)CCCNc1c2c(nc3cc(Cl)ccc13)CCCC2", "Acetylcholinesterase (Homo sapiens)", 8.54],
  ["c1ccc(-c2ccc(NCCN3CCOCC3)nn2)cc1", "Acetylcholinesterase (Homo sapiens)", 3.00],
  ["c1ccc(-c2cnc(NCN3CCCCC3)nn2)cc1", "Acetylcholinesterase (Homo sapiens)", 4.22],
  ["c1ccc(-c2ccc(NCCCN3CCc4ccccc4C3)nn2)cc1", "Acetylcholinesterase (Homo sapiens)", 4.46]
]}
